Reported protein stability index values are given for each entry in this list.
Procedure summary: protein stability index of a GFP-peptide fusion (yeast GPS) (PSI 1-4); higher = more stable; sorted into four equal gates, so the index is relative within each strain
Protocol conditions: ubr1∆
Give your answer as a number; write no unit.

Example cases with answers are listed next.
# Sequence data, protein stability index
rows = [
    ("DNDRFNVVGKLISIISS [YML103C/NUP188]", 1.2),
    ("ELNIIPRDLLRVIIQEL [PRP28]", 1.15),
    ("GTSLTIQHIAAAMVPFI [CDC53]", 3.03),
    ("KFKLLNGLAIRRAAYGV [RPS3]", 1.86),
    ("AYIKLLDQTKDTRITHL [SNF2]", 2.39),
    ("KFMTNSTAFVPTIEYVQ [ARP9]", 2.62),
    ("IWLRKTSQMDLARDTPS [RRP4]", 1.5),
    ("KLHMGTEDVRLAPELNQ [RPL31B]", 3.05),
]

Please report the measured protein stability index for FKSSVEMGKTDKSTKTA [YOR098C/NUP1]
3.43

Give the measured protein stability index for LITLFNKGELETQPGCN [RPO31]
2.94

Using known records, supply protein stability index for HLMSWSKTGIIAYSDSQ [SIN4]
2.2

Retrieve protein stability index measured for IDYSNSQIRLYAKFKRN [RGR1] and print it.
2.8

Could you please provide reported protein stability index for SALQQIMYQQMLKYRRL [SNF2] ? Thanks!
1.35

Please supply the value of reported protein stability index for the item KAEVTQLSNGIVVATEH [COR1]
2.96

Specify protein stability index for TVQLTFLIDVLKIYAQI [YCG1] and stop.
1.7

Quote protein stability index reported for NVTKSSVGVIINKMVGN [RPL21A] please.
2.91
